B1: Twister Ribozyme (parent)
chain: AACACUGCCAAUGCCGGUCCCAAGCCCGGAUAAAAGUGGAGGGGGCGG

# Variants of: B1
# assay_summary: self-cleavage, relative activity (ratio to wild type); higher = more cleavage; co-transcriptional
Let's look at some variants and their measured self-cleavage.

changes | self-cleavage
A2G C27G | 0.138

Lookup result for U37C G38U ; measured self-cleavage: 0.516

Lookup result for A10C G43A ; measured self-cleavage: 0.337

All figures here come from the RNAGym collection of RNA variant scans (doi:10.7554/elife.80360).
